Each recorded value in this set is attributed to patent US8895695B2.

Listing of entries alongside the reported Hemolysis at 100 μM.
Test system: human red blood cells (hRBC)
Assay: Hemolysis
Type: cell-based
Bridge positions count the residues as written; N and C are the ends. Square brackets hold non-standard residues; d marks the D form. Peptide text beside a SMILES is read from it. 2Nal = N[C@@H](Cc1ccc2ccccc2c1)C(=O)O; Cit = NC(=O)NCCC[C@H](N)C(=O)O
Please give a number only; it is taken to be in %.

# example entries with known answers
[[record]]
compound = "C[C@@H]1NC(=O)[C@H](CCC(N)=O)NC(=O)[C@H](Cc2ccc(O)cc2)NC(=O)[C@@H]2CSSC[C@H](NC(=O)[C@H](CCCNC(N)=O)NC(=O)[C@H](CCCNC(=N)N)NC(=O)[C@H](Cc3ccc(O)cc3)NC(=O)[C@@H]3CCCN3C(=O)[C@H]3CCCN3C1=O)C(=O)N[C@@H](CCCNC(=N)N)C(=O)NCC(=O)N1CCC[C@@H]1C(=O)N[C@@H](CCCNC(=N)N)C(=O)N[C@@H](CCCNC(=N)N)C(=O)N[C@@H](Cc1ccc3ccccc3c1)C(=O)N2 [Ex. 86] (cyclo(YR[Cit]CRG[dP]RR[2Nal]CYQA[dP]P); disulfide 4-11)"
measured_value = 0

[[record]]
compound = "CC(C)[C@@H]1NC(=O)[C@H](CCCNC(N)=O)NC(=O)[C@H](CCCNC(=N)N)NC(=O)[C@H](Cc2ccc(O)cc2)NC(=O)[C@@H]2CCCN2C(=O)[C@H]2CCCN2C(=O)[C@H](CCCCN)NC(=O)[C@H](CCCNC(N)=O)NC(=O)[C@H](Cc2ccc(O)cc2)NC(=O)[C@H](C(C)C)NC(=O)[C@H](Cc2ccc3ccccc3c2)NC(=O)[C@H](CCCNC(=N)N)NC(=O)[C@H](CCCNC(=N)N)NC(=O)[C@H]2CCCN2C(=O)CNC(=O)[C@H](CCCNC(=N)N)NC1=O [compound 45] (cyclo(YR[Cit]VRG[dP]RR[2Nal]VY[Cit]K[dP]P))"
measured_value = 0.4

[[record]]
compound = "N=C(N)NCCC[C@@H]1NC(=O)[C@@H]2CSSC[C@H](NC(=O)[C@H](Cc3ccc4ccccc4c3)NC(=O)[C@H](CCCNC(=N)N)NC(=O)[C@H](CCCNC(=N)N)NC(=O)[C@H]3CCCN3C(=O)CNC1=O)C(=O)N[C@@H](Cc1ccc(O)cc1)C(=O)N[C@@H](CCC(N)=O)C(=O)N[C@@H](CC(=O)O)C(=O)N1CCC[C@@H]1C(=O)N1CCC[C@H]1C(=O)N[C@@H](Cc1ccc(O)cc1)C(=O)N[C@@H](CCCNC(=N)N)C(=O)N[C@@H](CCCNC(N)=O)C(=O)N2 [Ex. 85] (cyclo(YR[Cit]CRG[dP]RR[2Nal]CYQD[dP]P); disulfide 4-11)"
measured_value = 0


### Prompt Form field: Hemolysis at 100 μM recorded for N=C(N)NCCC[C@@H]1NC(=O)[C@@H]2CSSC[C@H](NC(=O)[C@H](Cc3c[nH]c4ccccc34)NC(=O)[C@H](CCCNC(=N)N)NC(=O)[C@H](CCCNC(=N)N)NC(=O)[C@H]3CCCN3C(=O)CNC1=O)C(=O)N[C@@H](Cc1ccc(O)cc1)C(=O)N[C@@H](CCCNC(N)=O)C(=O)N[C@@H](CCCCN)C(=O)N1CCC[C@@H]1C(=O)N1CCC[C@H]1C(=O)N[C@@H](Cc1ccc(O)cc1)C(=O)N[C@@H](Cc1c[nH]cn1)C(=O)N[C@@H](CCCNC(N)=O)C(=O)N2 [Ex. 105] (cyclo(YH[Cit]CRG[dP]RRWCY[Cit]K[dP]P); disulfide 4-11) with human red blood cells (hRBC) (enter value)
### Response 0

* * *

Test system: human red blood cells (hRBC)
Assay: Hemolysis
Assay type: cell-based
Bridge positions count the residues as written; N and C are the ends. Square brackets hold non-standard residues; d marks the D form. Peptide text beside a SMILES is read from it. 2Nal = N[C@@H](Cc1ccc2ccccc2c1)C(=O)O; Cit = NC(=O)NCCC[C@H](N)C(=O)O
Just a reminder that ties go to condition not met: only Hemolysis at 100 μM strictly below 0.1% counts as condition met.

Here are 5 molecules together with their reported answers.
[[record]]
molecule = "N=C(N)NCCC[C@@H]1NC(=O)[C@H](CCCNC(=N)N)NC(=O)[C@H](Cc2ccccc2)NC(=O)[C@H](CCCNC(N)=O)NC(=O)[C@H](CCCNC(=N)N)NC(=O)[C@H](Cc2ccc(O)cc2)NC(=O)[C@@H]2CCCN2C(=O)[C@H]2CCCN2C(=O)[C@H](CCCCN)NC(=O)[C@H](CCCNC(N)=O)NC(=O)[C@H](Cc2ccc(O)cc2)NC(=O)[C@H](Cc2ccccc2)NC(=O)[C@H](Cc2ccc3ccccc3c2)NC(=O)[C@H](CCCNC(=N)N)NC1=O [compound 3] (cyclo(YR[Cit]FRRR[2Nal]FY[Cit]K[dP]P))"
cat = "condition not met"

[[record]]
molecule = "N=C(N)NCCC[C@@H]1NC(=O)[C@@H]2CSSC[C@H](NC(=O)[C@H](Cc3ccc4ccccc4c3)NC(=O)[C@H](CCCNC(=N)N)NC(=O)[C@H](CCCNC(=N)N)NC(=O)[C@H]3CCCN3C(=O)CNC1=O)C(=O)N[C@@H](Cc1ccc(O)cc1)C(=O)N[C@@H](CCCNC(N)=O)C(=O)N[C@@H](CCCCN)C(=O)N1CCC[C@@H]1C(=O)N1CCC[C@H]1C(=O)N[C@@H](Cc1ccc(O)cc1)C(=O)N[C@@H](CCCNC(=N)N)C(=O)N[C@@H](CCCNC(N)=O)C(=O)N2 [Ex. 51]"
cat = "condition met"

[[record]]
molecule = "CSCC[C@@H]1NC(=O)[C@H](CCCNC(=N)N)NC(=O)[C@H](Cc2ccc(O)cc2)NC(=O)[C@@H]2CCCN2C(=O)[C@H]2CCCN2C(=O)[C@H](CCCCN)NC(=O)[C@H](CCC(N)=O)NC(=O)[C@H](Cc2ccc(O)cc2)NC(=O)[C@@H]2CSSC[C@H](NC1=O)C(=O)N[C@@H](CCCNC(=N)N)C(=O)NCC(=O)N1CCC[C@@H]1C(=O)N[C@@H](CCCNC(=N)N)C(=O)N[C@@H](CCCNC(=N)N)C(=O)N[C@@H](Cc1ccc3ccccc3c1)C(=O)N2 [Ex. 100] (cyclo(YRMCRG[dP]RR[2Nal]CYQK[dP]P); disulfide 4-11)"
cat = "condition not met"

[[record]]
molecule = "C[C@@H](O)[C@@H]1NC(=O)[C@@H]2CCCN2C(=O)[C@H]2CCCN2C(=O)[C@H](CCCCN)NC(=O)[C@H](CCC(N)=O)NC(=O)[C@H](Cc2ccc(O)cc2)NC(=O)[C@@H]2CSSC[C@H](NC(=O)[C@H](CCCNC(N)=O)NC(=O)[C@H](CCCNC(=N)N)NC1=O)C(=O)N[C@@H](CCCNC(=N)N)C(=O)NCC(=O)N1CCC[C@@H]1C(=O)N[C@@H](CCCNC(=N)N)C(=O)N[C@@H](CCCNC(=N)N)C(=O)N[C@@H](Cc1ccc3ccccc3c1)C(=O)N2 [Ex. 67] (cyclo(TR[Cit]CRG[dP]RR[2Nal]CYQK[dP]P); disulfide 4-11)"
cat = "condition not met"

[[record]]
molecule = "CC(C)[C@@H]1NC(=O)[C@H](Cc2ccc3ccccc3c2)NC(=O)[C@H](CCCNC(=N)N)NC(=O)[C@H](CCCNC(=N)N)NC(=O)[C@@H]2CCCN2C(=O)[C@H](C(C)C)NC(=O)[C@H](CCCNC(=N)N)NC(=O)[C@H](Cc2ccccc2)NC(=O)[C@H](CCCNC(N)=O)NC(=O)[C@H](CCCNC(=N)N)NC(=O)[C@H](Cc2ccc(O)cc2)NC(=O)[C@@H]2CCCN2C(=O)[C@H]2CCCN2C(=O)[C@H](CCCCN)NC(=O)[C@H](CCCNC(N)=O)NC(=O)[C@H](Cc2ccc(O)cc2)NC1=O [compound 22] (cyclo(YR[Cit]FRVPRR[2Nal]VY[Cit]K[dP]P))"
cat = "condition met"


Shift focus to the following entry.
### Prompt Please state whether Hemolysis at 100 μM is below 0.1% for CC(C)[C@@H]1NC(=O)[C@H](Cc2ccc3ccccc3c2)NC(=O)[C@H](CCCNC(=N)N)NC(=O)[C@H](CCCNC(=N)N)NC(=O)[C@H]2CCCN2C(=O)[C@H](C(C)C)NC(=O)[C@H](CCCNC(=N)N)NC(=O)[C@H](Cc2ccccc2)NC(=O)[C@H](CCCNC(N)=O)NC(=O)[C@H](CCCNC(=N)N)NC(=O)[C@H](Cc2ccc(O)cc2)NC(=O)[C@@H]2CCCN2C(=O)[C@H]2CCCN2C(=O)[C@H](CCCCN)NC(=O)[C@H](CCCNC(N)=O)NC(=O)[C@H](Cc2ccc(O)cc2)NC1=O [compound 21] (cyclo(YR[Cit]FRV[dP]RR[2Nal]VY[Cit]K[dP]P))
### Response condition not met
